B1: HDV Ribozyme (parent)
chain: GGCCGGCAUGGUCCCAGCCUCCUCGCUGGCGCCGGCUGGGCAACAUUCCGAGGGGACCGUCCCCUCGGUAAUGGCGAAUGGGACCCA

# Variants of: B1
# experimental details: self-cleavage, relative activity (ratio to wild type); higher = more cleavage; co-transcriptional
Label 0.0 if self-cleavage falls below 0.2; label 1.0 in every other case.

As a guide, the following entries are already answered.
>>> cat("G39A C86A")
1.0
>>> cat("G39A C66U")
1.0

Item G31C G68A with self-cleavage of 0.2 or above? 1.0

Item C21A G38C with self-cleavage of 0.2 or above? 0.0

Item G81C C85U with self-cleavage of 0.2 or above? 1.0

Item C36G G82U with self-cleavage of 0.2 or above? 0.0

Item C58A C75G with self-cleavage of 0.2 or above? 0.0

Item G52C A70G with self-cleavage of 0.2 or above? 1.0

Item C15U C41G with self-cleavage of 0.2 or above? 1.0

Item A51C C64U with self-cleavage of 0.2 or above? 1.0

Item C41G C44A with self-cleavage of 0.2 or above? 0.0

Item C36A G82A with self-cleavage of 0.2 or above? 0.0

Item C7G C24U with self-cleavage of 0.2 or above? 0.0

Item C30A C32G with self-cleavage of 0.2 or above? 0.0

Item G28C G81A with self-cleavage of 0.2 or above? 0.0

Item C14G U23A with self-cleavage of 0.2 or above? 1.0

Item U12A U37C with self-cleavage of 0.2 or above? 1.0
